Hello, the source for this data is patent US20250177383A1, in case you need it.

# measurement.notes: Microsomal stability, human liver microsomes
# Assay type: in vitro ADME
# measurement.setup: human liver microsomes 0.5 mg protein/mL, 1 μM test compound, NADPH, 37° C., 60 min; read-out: HLM Clint
I'd be grateful if you could share measured microsomal CLint at 1 μM for these entries.

Illustrative cases are given below, each with its answer.
CCn1nccc1C(=O)N[C@H](C(=O)Nc1ccc([C@H](C)[C@@H](NC(=O)N(C)C2CC2)C(=O)N2CCN(C)CC2)cc1F)C(C1CC1)C1CC1 [Compound 225]    50 to 150 µL/min/mg
CCC(=O)N[C@@H](C(=O)N1CCN(C)[C@H](C)C1)[C@@H](C)c1ccc(NC(=O)[C@@H](NC(=O)c2ccnn2CC)[C@H]2CC[C@H](C)CC2)c(F)c1 [G, reference compound]    > 150 µL/min/mg
CCn1nccc1C(=O)N[C@H](C(=O)Nc1ccc([C@H](C)[C@@H](NC(=O)COC)C(=O)N2CCN(C)[C@H](C)C2)cc1F)C(C1CC1)C1CC1 [Compound 207]    50 to 150 µL/min/mg

Provide the reported microsomal CLint at 1 μM of each entry below, same order.
1. CCn1nccc1C(=O)N[C@H](C(=O)Nc1ccc([C@H](C)[C@@H](NC(=O)COC)C(=O)N2CCN(C)[C@@H](CF)C2)cc1F)[C@H]1CC[C@H](C)CC1 [B, reference compound]
2. CCn1nccc1C(=O)N[C@H](C(=O)Nc1ccc([C@H](C)[C@@H](NC(=O)COC)C(=O)N2CCN(C)CC2)cc1F)[C@H]1CC[C@H](C)CC1 [K, reference compound]

Output:
1: 50 to 150 µL/min/mg; 2: > 150 µL/min/mg
